This collection of values is drawn from patent US20230212222A1.

ECmax (-fold induction over basal) reference
biological target: GPR39 (Homo sapiens, UniProt O43194)
Sequence (O43194 whole entry): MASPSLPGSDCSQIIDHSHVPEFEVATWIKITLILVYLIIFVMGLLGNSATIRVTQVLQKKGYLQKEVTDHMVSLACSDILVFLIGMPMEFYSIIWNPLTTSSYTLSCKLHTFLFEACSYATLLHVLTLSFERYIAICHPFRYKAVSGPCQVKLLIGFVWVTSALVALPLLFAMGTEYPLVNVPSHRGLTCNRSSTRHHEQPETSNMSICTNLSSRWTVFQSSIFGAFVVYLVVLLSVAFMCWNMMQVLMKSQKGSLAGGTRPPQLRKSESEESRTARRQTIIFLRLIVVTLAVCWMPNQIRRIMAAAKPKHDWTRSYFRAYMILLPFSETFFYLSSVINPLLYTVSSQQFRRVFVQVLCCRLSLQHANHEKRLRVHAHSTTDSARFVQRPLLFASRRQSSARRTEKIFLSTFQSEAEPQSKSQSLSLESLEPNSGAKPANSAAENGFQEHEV
Square brackets hold non-standard residues; d marks the D form. Peptide text beside a SMILES is read from it. * marks the point of attachment. His(τ-CHPh2) = N[C@@H](Cc1cn(C(c2ccccc2)c2ccccc2)cn1)C(=O)O; Tyr(3-NO2) = N[C@@H](Cc1ccc(O)c([N+](=O)[O-])c1)C(=O)O; dPhe(4-Me) = Cc1ccc(C[C@@H](N)C(=O)O)cc1; Octanoyl = CCCCCCCC(=O)*

// worked examples, ECmax (-fold induction over basal) included
molecule="CCCCCCCC(=O)NCCCC[C@H](N)C(=O)N[C@@H](Cc1ccccc1)C(=O)N[C@@H](Cc1ccc(O)cc1)C(=O)O [HKFY-54] (H-Lys(Octanoyl)-Phe-Tyr-OH)" recorded_measurement="7.8 ± 2.5 -fold induction over basal"
molecule="CCCCCCCC(=O)NCCCC[C@H](NC(=O)[C@@H](N)Cc1cn(CCc2ccccc2)cn1)C(=O)N[C@@H](Cc1ccccc1)C(=O)N[C@@H](Cc1ccc(O)cc1)C(=O)O [HKFY-9]" recorded_measurement="21 ± 2.52 -fold induction over basal"
molecule="CCCCCCCC(=O)NCCCC[C@H](NC(=O)[C@@H](N)Cc1cn(C23CC4CC(CC(C4)C2)C3)cn1)C(=O)N[C@@H](Cc1ccccc1)C(=O)N[C@@H](Cc1ccc(O)cc1)C(=O)O [HKFY-23]" recorded_measurement="15 ± 1.37 -fold induction over basal"
molecule="CCCCCCCC(=O)NCCCC[C@H](NC(=O)[C@@H](N)Cc1cn(C(c2ccccc2)c2ccccc2)cn1)C(=O)N[C@H](Cc1ccc(C)cc1)C(=O)N[C@@H](Cc1ccc(O)c([N+](=O)[O-])c1)C(=O)O [HKFY-68] (H-[His(τ-CHPh2)]K(Octanoyl)[dPhe(4-Me)][Tyr(3-NO2)]-OH)" recorded_measurement="10.8 ± 1.41 -fold induction over basal"

Continue with the molecule presented below.
Item CCCCCCCC(=O)NCCCC[C@H](NC(=O)[C@@H](N)Cc1cn(C(c2ccccc2)c2ccc(F)cc2F)cn1)C(=O)N[C@H](Cc1ccc(C)cc1)C(=O)N[C@@H](Cc1ccc(O)cc1)C(=O)O (some centres unmarked) [HKFY-32] with GPR39 (Homo sapiens, UniProt O43194) - ECmax (-fold induction over basal)?
21.5 ± 2.7 -fold induction over basal
